# ASSAYED_TARGET: rat TRPV1 (Rattus norvegicus)
# TEST_NAME: Functional assay: block of capsaicin-induced Ca2+ influx, rat assay (rTRPV1/HEK293, FLIPR)
# ASSAY_SETUP: rTRPV1/HEK293 cells, capsaicin challenge, Fluo-3 fluorescence; mean; > value = solubility limit in assay medium
ENDPOINT_LABEL: IC50 (nM)

1. Cc1nc(Nc2ccc(C(F)(F)F)c(Cl)c2)c2nc(Nc3c(Cl)cccc3Cl)sc2n1 | 3

I: FC(F)(F)c1ccc(Nc2nc(NCCCN3CCOCC3)nc3sc(Nc4c(Cl)cccc4Cl)nc23)cc1
II: FC(F)(F)c1ccc(Nc2ncnc3sc(NC4CCCCC4)nc23)cn1
III: CC(CO)Nc1nc(Nc2ccc(C(F)(F)F)cc2)c2nc(Nc3c(Cl)cccc3Cl)sc2n1 (racemic)
IV: Cc1nc(Nc2ccc(SC(F)(F)F)c(Cl)c2)c2nc(Nc3c(Cl)cccc3Cl)sc2n1
V: Cc1cccc(C)c1Nc1nc2c(Nc3ccc(C(F)(F)F)c(Cl)c3)ncnc2s1
Order these by IC50, descending, and give the full ranking. Write the labels in rank order as requested.
II, III, IV, V, I
(II: 7720 nM, III: 666 nM, IV: 112 nM, V: 34 nM, I: 6 nM)

###

# ASSAYED_TARGET: rat TRPV1 (Rattus norvegicus)
# TEST_NAME: Functional assay: block of capsaicin-induced Ca2+ influx, rat assay (rTRPV1/HEK293, FLIPR)
# ASSAY_SETUP: rTRPV1/HEK293 cells, capsaicin challenge, Fluo-3 fluorescence; mean; > value = solubility limit in assay medium
ENDPOINT_LABEL: IC50 (nM)

Before answering, review these 5 worked examples.
1. Cc1nc(Nc2ccc(S(C)(=O)=O)cc2)c2nc(Nc3c(Cl)cccc3Cl)sc2n1 [Example 78] | 1
2. C[C@@H](O)CNc1nc(Nc2ccc(C(F)(F)F)cc2)c2nc(Nc3c(Cl)cccc3Cl)sc2n1 [Example 250] | 0.7
3. CC1CCCN1c1nc(Nc2ccc(S(C)(=O)=O)cc2)c2nc(Nc3c(Cl)cccc3Cl)sc2n1 (racemic) [Example 117] | 7
4. Cc1nc(Nc2ccc([S+](C)[O-])cc2)c2nc(Nc3c(C)cccc3C)sc2n1 (racemic) [Example 143] | 279
5. Cc1cccc(C)c1Nc1nc2c(Nc3ccc(Cl)nc3)ncnc2s1 [Example 119] | 51

I: Cc1nc(Nc2ccccc2)c2nc(Nc3c(C)cccc3C)sc2n1 [Example 141]
II: COC(=O)c1scc(C)c1Nc1nc2c(Nc3ccc(C(F)(F)F)c(Cl)c3)ncnc2s1 [Example 207]
Select the item whose IC50 value is smaller, choosing between I and II . Kindly give the label for the entry you pick.
I

###

# ASSAYED_TARGET: human TRPV1 (Homo sapiens, UniProt Q8NER1)
# Sequence (Q8NER1 whole entry): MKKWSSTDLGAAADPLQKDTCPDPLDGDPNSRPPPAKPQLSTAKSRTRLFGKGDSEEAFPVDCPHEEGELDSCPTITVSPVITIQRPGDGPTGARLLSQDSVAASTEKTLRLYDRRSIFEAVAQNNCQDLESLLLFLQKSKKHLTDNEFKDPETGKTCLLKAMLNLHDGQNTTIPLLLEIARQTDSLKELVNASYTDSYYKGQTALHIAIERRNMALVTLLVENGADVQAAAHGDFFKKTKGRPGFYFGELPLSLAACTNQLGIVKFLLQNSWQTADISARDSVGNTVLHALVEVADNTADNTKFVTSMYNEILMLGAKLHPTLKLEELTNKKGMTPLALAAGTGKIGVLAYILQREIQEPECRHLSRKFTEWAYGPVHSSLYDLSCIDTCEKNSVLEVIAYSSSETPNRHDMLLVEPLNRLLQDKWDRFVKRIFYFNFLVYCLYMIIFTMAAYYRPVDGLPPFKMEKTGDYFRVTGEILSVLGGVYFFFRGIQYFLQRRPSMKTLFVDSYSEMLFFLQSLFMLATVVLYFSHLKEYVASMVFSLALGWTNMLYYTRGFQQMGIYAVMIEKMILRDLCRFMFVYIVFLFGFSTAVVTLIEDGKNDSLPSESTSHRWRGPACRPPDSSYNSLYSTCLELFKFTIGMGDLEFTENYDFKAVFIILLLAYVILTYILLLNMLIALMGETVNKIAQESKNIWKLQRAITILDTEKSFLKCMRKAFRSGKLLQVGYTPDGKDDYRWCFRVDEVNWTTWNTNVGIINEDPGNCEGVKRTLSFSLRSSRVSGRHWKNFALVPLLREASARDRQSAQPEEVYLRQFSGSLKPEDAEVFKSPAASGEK
# TEST_NAME: Functional assay: block of capsaicin-induced Ca2+ influx, human assay (hTRPV1/HEK293, FLIPR)
# ASSAY_SETUP: hTRPV1/HEK293 cells, 150 nM capsaicin challenge, Fluo-3 fluorescence; mean; > value = solubility limit in assay medium
ENDPOINT_LABEL: IC50 (nM)

Before answering, review these 3 worked examples.
1. FC(F)(F)c1ccc(Nc2nc(N3CCOCC3)nc3sc(Nc4c(Cl)cccc4Cl)nc23)cc1 | 41
2. Cc1nc(Nc2ccc(S(=O)(=O)C(F)(F)F)cc2)c2nc(Nc3c(C)cccc3C)sc2n1 | 7
3. Cc1cccc(C)c1Nc1nc2c(Nc3ccc(F)cc3)ncnc2s1 | 431

a: Cc1noc(C)c1Nc1nc2c(Nc3ccc(S(=O)(=O)N4CCOCC4)cc3)ncnc2s1
b: CN[C@@H]1CCN(c2nc(Nc3ccc(C(F)(F)F)cc3)c3nc(Nc4c(Cl)cccc4Cl)sc3n2)C1
c: Cc1nc(Nc2ccc(N(C)S(C)(=O)=O)cc2)c2nc(Nc3c(C)cccc3C)sc2n1
d: NC(=O)c1cc(Cl)c(Nc2nc3c(Nc4ccc(C(F)(F)F)cc4)ncnc3s2)c(Cl)c1
e: Cc1nc(Nc2ccc(C(F)(F)F)nc2)c2nc(Nc3c(-c4ccccc4)noc3C)sc2n1
Order these by IC50, descending, and give the full ranking. Write the labels in rank order as requested.
b, c, a, e, d
(b: 13600 nM, c: 6510 nM, a: 1080 nM, e: 208 nM, d: 90 nM)

###

# ASSAYED_TARGET: human TRPV1 (Homo sapiens)
# Construct: expressed in transfected cells; host or cells: HEK293 (hTRPV1/HEK293), zeocin selection
# TEST_NAME: Functional assay: block of capsaicin-induced Ca2+ influx, human assay (hTRPV1/HEK293, FLIPR)
# Type: cell-based
# ASSAY_SETUP: hTRPV1/HEK293 cells, 150 nM capsaicin challenge, Fluo-3 fluorescence; mean; > value = solubility limit in assay medium
ENDPOINT_LABEL: IC50 (nM)

Before answering, review these 5 worked examples.
1. Cc1nc(Nc2ccc(C(F)(F)F)nc2)c2nc(Nc3c(Cl)cccc3Cl)sc2n1 | 5
2. FC(F)(F)c1ccc(Nc2nc(N3CCNCC3)nc3sc(Nc4c(Cl)cccc4Cl)nc23)cc1Cl | 4280
3. CC(C)(O)CNc1nc(Nc2ccc(C(F)(F)F)cc2)c2nc(Nc3c(Cl)cccc3Cl)sc2n1 | 290
4. Cc1cccc(C)c1Nc1nc2c(Nc3ccc(Cl)nc3)ncnc2s1 | 56
5. Cc1nc(Nc2ccc(S(=O)(=O)C(C)C)cc2)c2nc(Nc3c(C)cccc3C)sc2n1 | 18

A: Cc1ccc(Nc2ncnc3sc(Nc4c(C)cccc4C)nc23)cc1O
B: COC(=O)C(C)(C)c1ccc(Nc2ncnc3sc(Nc4c(Cl)cccc4Cl)nc23)cc1
Select the item with the higher value of IC50 from the options A and B listed. Kindly give the label for the entry you pick.
A
(A: 2990 nM, B: 139 nM)

###

# ASSAYED_TARGET: rat TRPV1 (Rattus norvegicus, UniProt O35433)
# Sequence (O35433 whole entry): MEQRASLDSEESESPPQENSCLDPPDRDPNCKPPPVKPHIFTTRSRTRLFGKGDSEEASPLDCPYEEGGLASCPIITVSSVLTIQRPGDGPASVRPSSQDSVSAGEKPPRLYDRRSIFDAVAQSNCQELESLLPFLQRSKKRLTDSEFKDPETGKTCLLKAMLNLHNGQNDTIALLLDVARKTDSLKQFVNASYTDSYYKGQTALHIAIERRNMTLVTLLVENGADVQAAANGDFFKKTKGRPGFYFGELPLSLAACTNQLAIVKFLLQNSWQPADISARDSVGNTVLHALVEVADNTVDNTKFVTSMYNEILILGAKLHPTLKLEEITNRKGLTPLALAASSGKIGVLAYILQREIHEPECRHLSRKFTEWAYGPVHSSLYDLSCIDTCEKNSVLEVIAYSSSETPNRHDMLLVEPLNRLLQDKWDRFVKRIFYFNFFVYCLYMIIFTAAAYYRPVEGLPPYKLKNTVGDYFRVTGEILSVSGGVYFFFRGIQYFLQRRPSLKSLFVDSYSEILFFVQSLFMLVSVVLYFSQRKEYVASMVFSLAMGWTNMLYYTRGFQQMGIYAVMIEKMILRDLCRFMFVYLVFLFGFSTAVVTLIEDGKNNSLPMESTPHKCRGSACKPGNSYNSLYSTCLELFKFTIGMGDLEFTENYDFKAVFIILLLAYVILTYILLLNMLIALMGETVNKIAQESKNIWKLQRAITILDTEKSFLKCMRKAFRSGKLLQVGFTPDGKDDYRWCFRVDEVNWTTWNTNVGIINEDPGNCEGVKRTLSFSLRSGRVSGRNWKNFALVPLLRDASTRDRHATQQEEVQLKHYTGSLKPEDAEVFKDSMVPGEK
# TEST_NAME: Functional assay: block of capsaicin-induced Ca2+ influx, rat assay (rTRPV1/HEK293, FLIPR)
# ASSAY_SETUP: rTRPV1/HEK293 cells, capsaicin challenge, Fluo-3 fluorescence; mean; > value = solubility limit in assay medium
ENDPOINT_LABEL: IC50 (µM)

1. CC(C)(C(=O)O)c1ccc(Nc2ncnc3sc(Nc4c(Cl)cccc4Cl)nc23)cc1 [Example 230] | 0.002
2. Cc1ccc(Nc2nc(C)nc3sc(Nc4c(C)cccc4C)nc23)cc1 [Example 138] | 0.128

I: COC(=O)c1scc(C)c1Nc1nc2c(Nc3ccc(C(F)(F)F)cc3)ncnc2s1 [Example 48]
II: Cc1ccccc1Nc1nc2c(Nc3ccc(C(F)(F)F)cc3)ncnc2s1 [Example 17]
Select the item with the higher value of IC50 from the options I and II listed. Kindly give the label for the entry you pick.
I

###

# ASSAYED_TARGET: human TRPV1 (Homo sapiens, UniProt Q8NER1)
# TEST_NAME: Functional assay: block of capsaicin-induced Ca2+ influx, human assay (hTRPV1/HEK293, FLIPR)
# ASSAY_SETUP: hTRPV1/HEK293 cells, 150 nM capsaicin challenge, Fluo-3 fluorescence; mean; > value = solubility limit in assay medium
ENDPOINT_LABEL: IC50 (µM)

A: Cc1nc(Nc2ccc(S(=O)(=O)N3CCCC3)cc2)c2nc(Nc3c(C)cccc3C)sc2n1 [Example 92]
B: CSc1ccccc1Nc1nc2c(Nc3ccc(C(F)(F)F)cc3)nc(C)nc2s1 [Example 195]
C: O=S(=O)(c1ccc(Nc2ncnc3sc(Nc4c(Cl)cncc4Cl)nc23)cc1)N1CCCC1 [Example 214]
D: Cc1nc(Nc2ccc(C(F)(F)F)c(F)c2)c2nc(Nc3c(C)cccc3C)sc2n1 [Example 121]
E: Cc1noc(C)c1Nc1nc2c(Nc3ccc(S(C)(=O)=O)cc3)ncnc2s1 [Example 224]
Order field: IC50 | Direction: descending (largest first) Write the labels in rank order as requested.
E, C, B, D, A

a: Cc1cccc(C)c1Nc1nc2c(Nc3ccc(S(C)(=O)=O)cc3)ncnc2s1 [Example 115]
b: Cc1ccc(Nc2nc(C)nc3sc(Nc4c(C)cccc4C)nc23)cc1 [Example 138]
c: Cc1cccc(C)c1Nc1nc2c(Nc3ccc(S(=O)(=O)N4CCCC4)cc3)ncnc2s1 [Example 104]
d: CC(=O)c1ccc(Nc2nc(C)nc3sc(Nc4c(Cl)cccc4Cl)nc23)cc1 [Example 86]
e: Cc1cccc(C)c1Nc1nc2c(Nc3ccc(S(=O)(=O)N4CCNCC4)cc3)ncnc2s1 [Example 151]
Order these by IC50, descending, and give the full ranking. Write the labels in rank order as requested.
e, b, a, c, d

###

# ASSAYED_TARGET: rat TRPV1 (Rattus norvegicus, UniProt O35433)
# Construct: expressed in transfected cells; host or cells: HEK293 (rTRPV1/HEK293), geneticin selection
# TEST_NAME: Functional assay: block of capsaicin-induced Ca2+ influx, rat assay (rTRPV1/HEK293, FLIPR)
# Type: cell-based
# ASSAY_SETUP: rTRPV1/HEK293 cells, capsaicin challenge, Fluo-3 fluorescence; mean; > value = solubility limit in assay medium
pIC50: −log10 of the molar value.
ENDPOINT_LABEL: pIC50

Before answering, review these 5 worked examples.
1. CN(C)c1nc(Nc2ccc(C(F)(F)F)cc2)c2nc(Nc3c(Cl)cccc3Cl)sc2n1 | 7.36
2. CSc1ccc(Nc2ncnc3sc(Nc4c(C)cccc4C)nc23)cc1 | 7.82
3. Cc1cccc(C)c1Nc1nc2c(Nc3ccc(N(C)S(C)(=O)=O)cc3)ncnc2s1 | 5.64
4. Cc1noc(C)c1Nc1nc2c(Nc3ccc(C(C)(C)C#N)cc3)ncnc2s1 | 7.02
5. CS(=O)(=O)c1ccc(Nc2ncnc3sc(Nc4c(Cl)cccc4Cl)nc23)cc1F | 9.00

A: CS(=O)(=O)c1ccccc1Nc1nc2c(Nc3ccc(S(=O)(=O)C(F)(F)F)cc3)ncnc2s1
B: CC(C)Nc1nc(Nc2ccc(C(F)(F)F)cc2)c2nc(Nc3c(Cl)cccc3Cl)sc2n1
C: Cc1cccc(C)c1Nc1nc2c(Nc3ccc(S(=O)(=O)N4CCOCC4)cc3)ncnc2s1
D: Cc1nc(Nc2ccc(S(=O)(=O)C(F)(F)F)cc2)c2nc(Nc3c(Cl)cccc3Cl)sc2n1
E: FC(F)(F)c1ccc(Nc2ncnc3sc(Nc4c(Cl)cc(CN5CCC5)cc4Cl)nc23)cc1
Order these by pIC50, descending, and give the full ranking. Write the labels in rank order as requested.
C, D, B, A, E

P: Cc1cccc(C)c1Nc1nc2c(Nc3ccc(SC(F)(F)F)cc3)ncnc2s1
Q: Cc1cccc(C)c1Nc1nc2c(Nc3ccc(C(C)C)cc3)ncnc2s1
R: Cc1nc(Nc2ccc(SC(C)C)cc2)c2nc(Nc3c(Cl)cccc3Cl)sc2n1
S: Cc1nc(Nc2ccc(C(F)(F)F)cc2)c2nc(Nc3c(Cl)cccc3Cl)sc2n1
T: Cc1cccc(C)c1Nc1nc2c(Nc3ccc(S(=O)(=O)N4CCNCC4)cc3)ncnc2s1
Arrange the 5 molecules by rising pIC50, starting with the smallest. Write the labels in rank order as requested.
T, R, P, Q, S
(T: 6.46, R: 7.48, P: 7.80, Q: 8.30, S: 8.70)

P: FC(F)(F)c1ccc(Nc2ncnc3sc(Nc4ccccc4)nc23)cn1
Q: FC(F)(F)c1ccc(Nc2nc(N3CCCCC3)nc3sc(Nc4c(Cl)cccc4Cl)nc23)cc1
R: COC(=O)C(C)(C)c1ccc(Nc2ncnc3sc(Nc4c(Cl)cccc4Cl)nc23)cc1
Order these by pIC50, descending, and give the full ranking. Write the labels in rank order as requested.
Q, R, P

a: CCCCOc1nc(Nc2ccc(C(F)(F)F)cc2)c2nc(Nc3c(Cl)cccc3Cl)sc2n1
b: CSc1ccc(Nc2nc(C)nc3sc(Nc4c(C)cccc4C)nc23)cc1
Select the item whose pIC50 value is smaller, choosing between a and b . Kindly give the label for the entry you pick.
b
